- System: MS2 coat protein
- test.description: apparent KD of MS2 coat protein; designed switch direction (-1 OFF switch, 1 ON switch): 1; higher = weaker reporter binding
- test.parameters: input ligand: FMN 200 uM
reported.endpoint: apparent KD of MS2 coat protein (nM)
Report only the number, with the unit nM understood.

AGUAGUGUAACAUGAGGAUCACCCAUGUAAGAAGAUGUAACCUAGGAUAUGGAUGAUAUGUUAGACCAGAAGGAGGAUUGUUUA [JR_SSNG3_Sub039] (Eterna round: R96, puzzle: Same State NG 3)
43.2
UAAUUAAGUCAAGGAUAUCACGUCGUUUAGACGUGAGAAGGUGAUUAAUACAUGAGGAUCACCCAUGUAAUACAUGAAUAAUUA [SSNG1/11-B3] (Eterna round: R96, puzzle: Same State NG 1)
51.3
ACAUGAGAGGGAGGAUAUUUUGUACCUACAUGUGACAUGAGGAUCACCCAUGUGGUAAGUAUGAGAAAGAAGGCCCAGAUAUGU [Equivalence 18 - Jieux - Same State NG 2] (Eterna round: R96, puzzle: Same State NG 2)
17.4
UUAAUGAAGUAAGGAUAUACAUGAGGAUCACUCGUAGAAGGUACUAUACAUGAGGAUCACCCAUGUGCCGGUCAGAAGACUGGA [Mat - Same State NG 1 - JL mod - D5] (Eterna round: R96, puzzle: Same State NG 1)
755

Look up apparent KD of MS2 coat protein: CCGUCGGAGGUAGGAUAUGGAGCCUUAUUGGCUCCAGAAGGAUCAAAUAAAUUAACAAACAUGAGGAUCACCCAUGUCCGACGG [Eli NG1ss - 86] (Eterna round: R96, puzzle: Same State NG 1)
156

###

- System: MS2 coat protein
- test.description: apparent KD of MS2 coat protein; designed switch direction (-1 OFF switch, 1 ON switch): -1; higher = weaker reporter binding
- test.parameters: Eterna round: R95; input ligand: none
Below is a list of entries, each paired with its recorded apparent KD of MS2 coat protein value.
Report only the number, with the unit nM understood.

// known answers, use as guide
UGGGUUACCCAUGGAAGUAACAUGAGGAUCACCCAUGUAGGGCAAGUUUUUUGUUCGUCAUAGGCCGUGGGUUUGGA [JR_SV3TOV1_Sub021] (puzzle: Sensor v3, turn-off variant 1)
32.4
GCGUAUGAGCAGGAUAUCCGACGGGAAUCCAAAGGAGAAGGGCUCACAUGAGGAUCACCCAUGUGGUCCAAAAC [Agediat] (puzzle: Exclusion 6)
27.3
CAUGAUCUUCGGAAAAUGUACAUGAGGAUCACCCAUGUGACGAGUUACAUGAAAAACAAGCUUUUUGCUCGUCUUAU [Sensor v3 - Turn-off variant 1 - 10] (puzzle: Sensor v3, turn-off variant 1)
623

Lab note: next sequence to report on.
Look up apparent KD of MS2 coat protein: UCAUACGGUGAGGAUAUCUCCACUAAAGUGUGUAGAGAAGGCGCUACAUGAGGAUCACCCAUGUUUAUGGGCAG [Ex-6 Malc#13] (puzzle: Exclusion 6)
124

###

- Test system: MS2 coat protein
- test.description: apparent KD of MS2 coat protein, switch OFF state (with FMN for OFF switches, without FMN for ON switches); designed switch direction (-1 OFF switch, 1 ON switch): 1; higher = weaker reporter binding
- test.parameters: FMN input: 0 or 200 uM; Eterna round: R93 (includes R88 designs)
Please use Y whenever apparent KD of MS2 coat protein is not below 50 nM, and N whenever it is.

For orientation, consider the following solved cases.
AAGAAACAUGAGGAUCACCCAUGUAAUAAUAUGGGAGGAUAUACAAGGACAAUAGUCAAGGUAGAAGGCCUAAGAA [Mat - Same State 1 - Meechl mod - D142]
Y
AGGAAACAUGAGGAUCACCCAUGUAAAAAUAUGGAAGGAUAUGGAAACACGAAAGUGAAACCAGAAGGUUCAAAAA [77%, Mat - Mod of Eli, 22]
N
AAAUAACAUGAGGAUCACCCAUGUUACAACAAUACAGGAUAUGUGGGUGAAAAUAGCAUGACAGAAGGGUAAUGUA [SameState1 Malc#32]
Y
AACAAUCUAUCUGAGGAUAUAUGUCGAAAGACAUGAGGAUCACCCAUGUAAAAACAUGAAAAGACAUAGAAGGCAGAUAGAUUGA [SS2: 1132]
N
GUGUAAAGAAUCGAGGAUAUCCUGAAAAGCACAUGAGGAUCACCCAUGUAAGAGCGAGAAUAAUGGGAGAAGGCGAGUUAUCGGU [JR_SS002_Sub1711]
N

Dear colleague, could you confirm whether AAAACACAUGAGGAUCACCCAUGUGCAAAAUUCGCAGGAUAUUUCUCGAUUAAAUGAUAGGAAGAAGGGUGAUAAA [Nob's Hobby 35 - Jieux - Same State 1] has apparent KD of MS2 coat protein at or above 50 nM?
N

Dear colleague, could you confirm whether AUAAAACAUGAGGAUCACCCAUGUAGACACGAUGGAGGAUAUACUAGAUCGAAAGAUCUAGUAGAAGGCCGACGUA [Mat - Same State 1 - JL mod - D95] has apparent KD of MS2 coat protein at or above 50 nM?
N

Dear colleague, could you confirm whether AAUCCAACUAGUCAGGAUAUCAGGCGUAAGACAUGAGGAUCACCCAUGUCCUUAGUACAAGUAACUGAGAAGGGACAGGGCGACC [JR_SS002_Sub410] has apparent KD of MS2 coat protein at or above 50 nM?
N

Dear colleague, could you confirm whether AGAAAUAAAAUGGAGGAUAUCCAAAAGAAAACAUGAGGAUCACCCAUGUAAAAGAAAAUAAAAUGGGAGAAGGCCACAAAUAAAG has apparent KD of MS2 coat protein at or above 50 nM?
N

Dear colleague, could you confirm whether ACGGUCAAGUGUGAGGAUAUCCAGGCUCCCACAUGAGGAUCACCCAUGUCUUAAAGGGCGUAAAGGGAGAAGGUACGAACGCCAC [Vesolees] has apparent KD of MS2 coat protein at or above 50 nM?
N

Dear colleague, could you confirm whether UGGAGACAUGAGGAUCACCCAUGUGAGAAGAGGCGAGGAUAUCGAAAGAAAGAAGAGAAACGAGAAGGCGCGAGAC [salish99-SS1-045] has apparent KD of MS2 coat protein at or above 50 nM?
N

Dear colleague, could you confirm whether AGGAAACAUGAGGAUCACCCAUGUAAAAAUAUAGGAGGAUAUGCGAAAAGAAACAAAGAAGCAGAAGGCUUAAAAA [75%, Ex sub1, 22] has apparent KD of MS2 coat protein at or above 50 nM?
N

Dear colleague, could you confirm whether AAGAAACAUGAGGAUCACCCAUGUGAUAAUAUGGGAGGAUAUACAAAGACGAAAGACGAAGUAGAAGGCCUAAGAA [Garnet 47] has apparent KD of MS2 coat protein at or above 50 nM?
Y

Dear colleague, could you confirm whether ACAUGCUGCCGGCAGGAUAUCGCUUGGCGGACAUGAGGAUCACCCAUGUGAGAAAGUCGCGCGCGCGAGAAGGGCCAUGGUAUCAG [SameState2_Neo] has apparent KD of MS2 coat protein at or above 50 nM?
Y

Dear colleague, could you confirm whether AGGAAACAUGAGGAUCACCCAUGUAUAAAAAUGGAAGGAUAUACUAAGACGAAAGUCAUAGUAGAAGGUUCAAAAA [76%, Meechl, 9] has apparent KD of MS2 coat protein at or above 50 nM?
N
